Test system: NCI-H226 lung
ASSAY METHOD TEXT: NCI tumour cell line growth inhibition, 48 h
OUTCOME MEASURE: TGI (µM)
Dear colleague, please return just the value in µM, with no unit written.

Query string: State the recorded TGI for this entry: `BrC(c1cccc2ccccc12)c1cccc2ccccc12`
Result string: 33.5

Query string: State the recorded TGI for this entry: `C[N+]1=C(/C=C\C=C\c2ccccc2)C(C)(C)c2ccccc21`
Result string: 25.5

Query string: State the recorded TGI for this entry: CC1OC(n2cc(F)c(=O)[nH]c2=O)C=CC1=O (centres undefined)
Result string: 66.4

Query string: State the recorded TGI for this entry: CC12CCC(Br)C(C)(C)C1CC=C1C(=O)OCC1O2 (centres undefined)
Result string: 23.2

Query string: State the recorded TGI for this entry: CC(=O)O[C@H]1[C@H](OC(=O)CC(C)(O)CC(=O)O)C[C@]2(C)C3=C(CCC2C1(C)C)[C@]1(C)CC[C@H]([C@H]2CC[C@H](C(C)(C)O)OC2O)[C@@]1(C)[C@@H](O)C3 (some centres undefined)
Result string: 53.8

More entries:
Query string: State the recorded TGI for this entry: `C=C1C(=O)O[C@H]2[C@H]1CC/C(Cn1cc(-c3ccccc3C(F)(F)F)nn1)=C\CC[C@@]1(C)O[C@@H]21`
Result string: 4.69

Query string: State the recorded TGI for this entry: `Cc1cnc(C(=O)Nc2nc3ccc(S(=O)(=O)Nc4ccc(C5(C(F)(F)F)CC5)cc4)cc3[nH]2)cn1`
Result string: 6.34

Query string: State the recorded TGI for this entry: `Cc1ncc(C(=O)Nc2ccc(CN3CCN(C)CC3)c(C(F)(F)F)c2)cc1C#Cc1cnc(N)cc1C#N`
Result string: 2.66

Query string: State the recorded TGI for this entry: `CC(=O)OCc1cc2ccccc2nc1C(Br)(Br)Br`
Result string: 60.8

Query string: State the recorded TGI for this entry: `N#C/C(=C\c1ccc(Br)cc1)n1nnc2ccc(F)cc21`
Result string: 4.03

Origin of the recorded values: PubChem BioAssay (NCI)
